B1: Azoarcus group I ribozyme (parent)
chain: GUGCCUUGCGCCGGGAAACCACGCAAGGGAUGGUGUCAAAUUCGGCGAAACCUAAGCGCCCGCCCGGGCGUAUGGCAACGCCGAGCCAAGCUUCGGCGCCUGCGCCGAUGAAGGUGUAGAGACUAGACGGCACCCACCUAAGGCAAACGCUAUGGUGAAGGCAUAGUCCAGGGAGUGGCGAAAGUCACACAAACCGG

# Variants of: B1
# experiment-notes: reverse-splicing fitness (ratio to wild type); higher = more active; in vitro selection; Mg2+ level not given
// Condition not met strictly below 0.007 in reverse-splicing fitness; Condition met otherwise

These solved cases illustrate the format of a correct answer.
alteration | group
C82G A111C A120G A145C C150G C169G U176A | Condition met
C82G A120G A145U C150G C169G U176G | Condition not met

Decide: is the reported value of reverse-splicing fitness for C82A A111C A145C C150A U176C equal to or greater than 0.007?
Condition met

Decide: is the reported value of reverse-splicing fitness for C82U A120C U176C equal to or greater than 0.007?
Condition met

Decide: is the reported value of reverse-splicing fitness for C82A A111C A120C A145C C150U U176A equal to or greater than 0.007?
Condition met

Decide: is the reported value of reverse-splicing fitness for C82A A120G A145U C150U C169U U176C equal to or greater than 0.007?
Condition met

Decide: is the reported value of reverse-splicing fitness for C82U A120C A145C C150G C169G U176A equal to or greater than 0.007?
Condition met

Decide: is the reported value of reverse-splicing fitness for C82G A111G A120G C150G C169G U176A equal to or greater than 0.007?
Condition met

Decide: is the reported value of reverse-splicing fitness for C82G A111C A145U C169A U176G equal to or greater than 0.007?
Condition met

Decide: is the reported value of reverse-splicing fitness for A111U A120U C150U C169A equal to or greater than 0.007?
Condition not met

Decide: is the reported value of reverse-splicing fitness for C82A A111U A120U A145U C150A C169U U176G equal to or greater than 0.007?
Condition not met
